Data provenance is patent US6362166B1.

- tgt: Recombinant Rhinovirus 3C protease (RVP) serotype-14 (Human rhinovirus 14)
- Construct: Recombinant Rhinovirus 3C proteases from serotypes 14, 16, 2 or 89; made in house
- measurement.protocol: Inhibition of Rhinovirus Protease (fluorescence resonance energy transfer assay), serotype 14
- Format: biochemical, human rhinovirus (HRV)
- condition.context: pH 7.6, read-out: kobs/I
kinact/KI strictly under 6000 M⁻¹ s⁻¹ means true; at 6000 M⁻¹ s⁻¹ or over means false.

Does CC(C)C[C@H](NC(=O)OCc1ccccc1)C(=O)N[C@@H](Cc1ccccc1)C(=O)N[C@H](/C=C/C(=O)OCC(C)(C)C)CCC(N)=O have kinact/KI strictly under 6000 M⁻¹ s⁻¹? false

Does CC(C)C[C@H](NC(=O)OCc1ccccc1)C(=O)N[C@@H](Cc1ccccc1)C(=O)N[C@H](/C=C/C(=O)N1CCc2cc(F)ccc21)CCC(N)=O have kinact/KI strictly under 6000 M⁻¹ s⁻¹? true

Does CC(C)C[C@H](NC(=O)OCc1ccccc1)C(=O)N[C@@H](Cc1ccccc1)C(=O)N[C@H](/C=C/C(=O)N1CCc2ccccc21)CCC(N)=O have kinact/KI strictly under 6000 M⁻¹ s⁻¹? false

Does CC(C)C[C@H](NC(=O)OCc1ccccc1)C(=O)N[C@@H](Cc1ccccc1)C(=O)N[C@H](/C=C/C(=O)N(C)O)CCC(N)=O have kinact/KI strictly under 6000 M⁻¹ s⁻¹? true

* * *

Would you mind telling me the reported EC50 of each entry?
- Test system: Human Rhinovirus-serotype 10 (HRV-10)
- measurement.protocol: Normal Human Bronchial Epithelial Cell Assay (MTT)
- Type: cell-based
- condition.context: normal human bronchial cells, HRV-10 at m.o.i. 10, 3-4 days at 34° C., read-out: ED50 (the source's name)
Respond with the bare value in nM.

# lookup: Human Rhinovirus-serotype 10 (HRV-10) EC50, key = CCOC(=O)/C=C/[C@H](CCC(N)=O)NC(=O)[C@H](Cc1ccc(F)cc1)NC(=O)c1cc2c(OC)cccc2[nH]1 70

# lookup: Human Rhinovirus-serotype 10 (HRV-10) EC50, key = COC(=O)/C=C/[C@H](CCC(N)=O)NC(=O)[C@H](Cc1ccccc1)NC(=O)[C@H](CC(C)C)NC(=O)OCc1ccccc1 0.7

# lookup: Human Rhinovirus-serotype 10 (HRV-10) EC50, key = CCOC(=O)/C=C/[C@H](CCC(N)=O)NC(=O)[C@H](Cc1ccccc1)NC(=O)[C@H](CC(C)C)NC(=O)OCc1ccccc1 40

# lookup: Human Rhinovirus-serotype 10 (HRV-10) EC50, key = CCOC(=O)/C=C/[C@H](CNC(C)=O)NC(=O)[C@H](Cc1ccccc1)NC(=O)[C@H](CC(C)C)NC(=O)OCc1ccccc1 150

* * *

Would you mind telling me the reported kobs/I of each entry?
- tgt: Recombinant Rhinovirus 3C protease (RVP) serotype 2 (Human rhinovirus 2, UniProt P04936)
- Construct: Recombinant Rhinovirus 3C proteases from serotypes 14, 16, 2 or 89; made in house
- Sequence (P04936 1508-1690): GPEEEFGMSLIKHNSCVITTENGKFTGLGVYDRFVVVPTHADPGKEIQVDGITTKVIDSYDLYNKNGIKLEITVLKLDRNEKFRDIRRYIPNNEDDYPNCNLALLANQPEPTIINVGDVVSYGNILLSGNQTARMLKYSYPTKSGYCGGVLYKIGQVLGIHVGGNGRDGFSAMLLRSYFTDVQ
- measurement.protocol: Inhibition of Rhinovirus Protease (fluorescence resonance energy transfer assay), serotype 2
- Assay type: biochemical, human rhinovirus (HRV)
- condition.context: progress curves in enzyme start experiments

Read the entry CCOC(=O)/C=C/[C@H](CCC(N)=O)NC(=O)[C@H](Cc1ccccc1)NC(=O)[C@H](CC(C)C)NC(=O)OCc1ccccc1 and write its reported kobs/I. 1,900 M-1 sec-1

Read the entry CCOC(=O)/C(C)=C/[C@H](CCC(N)=O)NC(=O)[C@H](Cc1ccccc1)NC(=O)[C@H](CC(C)C)NC(=O)SC(C)C and write its reported kobs/I. 830 M⁻¹ s⁻¹

Read the entry CCOC(=O)/C=C/[C@H](CCC(N)=O)NC(=O)[C@H](Cc1ccccc1)NC(=O)[C@H](CCc1ccccc1)NC(=O)SCc1ccccc1 and write its reported kobs/I. 150,000 M-1 sec-1

* * *

Would you mind telling me the reported log10(kinact/KI) of each entry?
- tgt: Recombinant Rhinovirus 3C protease (RVP) serotype 16 (Human rhinovirus 16)
- Construct: Recombinant Rhinovirus 3C proteases from serotypes 14, 16, 2 or 89; made in house
- Sequence (Q82122 1511-1693): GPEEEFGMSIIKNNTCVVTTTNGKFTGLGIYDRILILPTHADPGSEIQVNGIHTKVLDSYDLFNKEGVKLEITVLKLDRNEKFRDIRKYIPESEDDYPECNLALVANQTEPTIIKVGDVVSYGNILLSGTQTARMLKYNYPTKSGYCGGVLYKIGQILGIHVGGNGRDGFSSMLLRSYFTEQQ
- measurement.protocol: Inhibition of Rhinovirus Protease (fluorescence resonance energy transfer assay), serotype 16
- Format: biochemical, human rhinovirus (HRV)
- condition.context: pH 7.6; RVP serotype 16; progress curves in enzyme start experiments; read-out: kobs/I
A value of 2 here means kinact/KI of 100 in M⁻¹ s⁻¹, since values are log10.

Read the entry CCOC(=O)/C=C/[C@H](CCC(N)=O)NC(=O)[C@H](Cc1ccccc1)NC(=O)[C@H](CSc1ccccc1)NC(=O)OCc1ccccc1 [Compound 153] and write its reported log10(kinact/KI). 4.49

Read the entry CC(C)C[C@H](NC(=O)OCc1ccccc1)C(=O)N[C@@H](Cc1ccccc1)C(=O)N[C@H](/C=C/C(=O)n1ccc2ccccc21)CCC(N)=O [Compound 89] and write its reported log10(kinact/KI). 3.45

Read the entry CCOC(=O)/C=C/[C@H](CCC(N)=O)NC(=O)[C@H](Cc1ccccc1)NC(=O)[C@H](CC(C)C)NC(=O)SCC [Compound 120] and write its reported log10(kinact/KI). 4.30

Read the entry CCOC(=O)/C=C/[C@H](CCC(N)=O)NC(=O)[C@H](Cc1ccc(C)cc1)NC(=O)[C@@H](NC(=O)SC1CCCC1)C(C)C [Compound 183] and write its reported log10(kinact/KI). 4.78

Read the entry CCOC(=O)/C=C/[C@H](CCC(N)=O)NC(=O)[C@H](Cc1ccccc1)NC(=O)[C@H](CC(=O)O)NC(=O)OCc1ccccc1 [Compound 159] and write its reported log10(kinact/KI). 3.81

Read the entry CCOC(=O)/C=C/[C@H](CCC(N)=O)NC(=O)[C@H](Cc1ccccc1)NC(=O)[C@H](CCC(=O)O)NC(=O)OCc1ccccc1 [Compound 154] and write its reported log10(kinact/KI). 4.14

Read the entry CCOC(=O)/C=C/[C@H](CCC(N)=O)NC(=O)[C@H](Cc1ccccc1)NC(=O)[C@H](Cc1ccccc1)NC(=O)OCc1ccccc1 [Compound 157] and write its reported log10(kinact/KI). 4.49

Read the entry CCOC(=O)C=CC(CCC(N)=O)NC(=O)C(Cc1ccc(C)cc1)NC(=O)C(CC(C)C)NC(=O)OCc1ccccc1 (centres unmarked) [Compound 155] and write its reported log10(kinact/KI). 3.72

Read the entry CCOC(=O)C=CC(CCC(N)=O)NC(=O)C(Cc1ccccc1)NC(=O)C(CCc1ccccc1)NC(=O)OCc1ccccc1 (centres unmarked) [Compound 148] and write its reported log10(kinact/KI). 4.17

Read the entry CCOC(=O)/C=C/[C@H](CCC(N)=O)NC(=O)[C@H](Cc1ccccc1)NC(=O)[C@H](CC(C)C)NC(=O)SCc1ccccc1 [Compound 106] and write its reported log10(kinact/KI). 4.88

Read the entry CC(=O)/C=C/[C@H](CCC(N)=O)NC(=O)[C@H](Cc1ccccc1)NC(=O)[C@H](CC(C)C)NC(=O)OCc1ccccc1 [Compound 13] and write its reported log10(kinact/KI). 3.95

* * *

- measurement.protocol: Cytotoxicity in mock-infected HI-HeLa cells (antirhinoviral assay, XTT)
- Format: cell-based
- condition.context: human; mock-infected HI-HeLa cells; two days; XTT; read-out: CC50
measurement.type: CC50 at 2 days

Read the entry COc1ccc2c(c1)CCN2C(=O)C=CC(CCC(N)=O)NC(=O)C(Cc1ccccc1)NC(=O)C(CC(C)C)NC(=O)OCc1ccccc1 (stereo not drawn) and write its reported CC50 at 2 days. > 320 µM

Read the entry CC(C)C[C@H](NC(=O)OCc1ccccc1)C(=O)N[C@@H](Cc1ccccc1)C(=O)N[C@H](/C=C/C(=O)N1CCc2cc([N+](=O)[O-])ccc21)CCC(N)=O and write its reported CC50 at 2 days. > 320 µM

Read the entry CC(C)C[C@H](NC(=O)OCc1ccccc1)C(=O)N[C@@H](Cc1ccccc1)C(=O)N[C@H](/C=C/C(=O)OC(C)C)CCC(N)=O and write its reported CC50 at 2 days. > 100 µM

* * *

- tgt: Recombinant Rhinovirus 3C protease (RVP) serotype-14 (Human rhinovirus 14, UniProt P03303)
- Construct: Recombinant Rhinovirus 3C proteases from serotypes 14, 16, 2 or 89; made in house
- Sequence (P03303 1538-1719): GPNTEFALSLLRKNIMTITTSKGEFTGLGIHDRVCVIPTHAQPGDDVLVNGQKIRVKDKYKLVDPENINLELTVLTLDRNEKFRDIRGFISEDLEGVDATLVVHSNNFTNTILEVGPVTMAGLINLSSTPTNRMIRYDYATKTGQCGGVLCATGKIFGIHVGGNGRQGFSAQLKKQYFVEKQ
- measurement.protocol: Inhibition of Rhinovirus Protease (fluorescence resonance energy transfer assay), serotype 14
- Assay type: biochemical, human rhinovirus (HRV)
Would you mind telling me the reported Ki of each entry?
Respond with the bare value in µM.

Read the entry CC(C)C[C@H](NC(=O)OCc1ccccc1)C(=O)N[C@@H](Cc1ccccc1)C(=O)N[C@H](/C=C/C(=O)n1ccc2ccccc21)CCC(N)=O [Compound 89] and write its reported Ki. 5

Read the entry CCOC(=O)/C=C/[C@H](CCC(N)=O)NC(=O)[C@H](Cc1ccccc1)NC(=O)[C@H](CC(C)C)NC(=O)SCc1ccccc1 [Compound 106] and write its reported Ki. 2

Read the entry CCOC(=O)/C=C/[C@H](CCC(N)=O)NC(=O)[C@H](Cc1cnc[nH]1)NC(=O)[C@H](CC(C)C)NC(=O)OCc1ccccc1 [Compound 112] and write its reported Ki. 13
